# condition_set: in sec-butanol, 308.15 K
value_type: solubility (mole fraction)

# input For the compound `CN1C(C(=O)Nc2ccccn2)=C(O)c2sccc2S1(=O)=O` , what solubility (mole fraction) is on record?
# output 0.000123

---

# condition_set: in water, 298.15 K
value_type: solubility (mole fraction)
When you answer, write just the number.

# input For the compound `CN1C(C(=O)Nc2ccccn2)=C(O)c2sccc2S1(=O)=O` , what solubility (mole fraction) is on record?
# output 4.11e-06

---

# condition_set: in propylene glycol, 323.15 K
value_type: solubility (mole fraction)

# input For the compound `CN1C(C(=O)Nc2ccccn2)=C(O)c2sccc2S1(=O)=O` , what solubility (mole fraction) is on record?
# output 0.000437

---

# condition_set: in sec-butanol, 323.15 K
value_type: solubility (mole fraction)
When you answer, write just the number.

# input For the molecule `CN1C(C(=O)Nc2ccccn2)=C(O)c2sccc2S1(=O)=O` , what solubility (mole fraction) is on record?
# output 0.000272

---

# condition_set: in water, 313.15 K
value_type: solubility (mole fraction)
When you answer, write just the number.

# input For the compound `CN1C(C(=O)Nc2ccccn2)=C(O)c2sccc2S1(=O)=O` , what solubility (mole fraction) is on record?
# output 8.33e-06

---

# condition_set: in water, 323.15 K
value_type: solubility (mole fraction)
When you answer, write just the number.

# input For the molecule `CN1C(C(=O)Nc2ccccn2)=C(O)c2sccc2S1(=O)=O` , what solubility (mole fraction) is on record?
# output 1.38e-05

---

# condition_set: in n-butanol, 303.15 K
value_type: solubility (mole fraction)
When you answer, write just the number.

# input For the molecule `CN1C(C(=O)Nc2ccccn2)=C(O)c2sccc2S1(=O)=O` , what solubility (mole fraction) is on record?
# output 0.000105

---

# condition_set: in n-butanol, 313.15 K
value_type: solubility (mole fraction)

# input For the compound `CN1C(C(=O)Nc2ccccn2)=C(O)c2sccc2S1(=O)=O` , what solubility (mole fraction) is on record?
# output 0.000163

---

# condition_set: in transcutol, 298.15 K
value_type: solubility (mole fraction)
When you answer, write just the number.

# input For the compound `CN1C(C(=O)Nc2ccccn2)=C(O)c2sccc2S1(=O)=O` , what solubility (mole fraction) is on record?
# output 0.00183

---

# condition_set: in water, 308.15 K
value_type: solubility (mole fraction)
When you answer, write just the number.

# input For the compound `CN1C(C(=O)Nc2ccccn2)=C(O)c2sccc2S1(=O)=O` , what solubility (mole fraction) is on record?
# output 6.46e-06

---

# condition_set: in transcutol, 308.15 K
value_type: solubility (mole fraction)
When you answer, write just the number.

# input For the compound `CN1C(C(=O)Nc2ccccn2)=C(O)c2sccc2S1(=O)=O` , what solubility (mole fraction) is on record?
# output 0.00222

---

# condition_set: in propylene glycol, 303.15 K
value_type: solubility (mole fraction)
When you answer, write just the number.

# input For the compound `CN1C(C(=O)Nc2ccccn2)=C(O)c2sccc2S1(=O)=O` , what solubility (mole fraction) is on record?
# output 0.000235

---

# condition_set: in isopropanol, 313.15 K
value_type: solubility (mole fraction)
When you answer, write just the number.

# input For the compound `CN1C(C(=O)Nc2ccccn2)=C(O)c2sccc2S1(=O)=O` , what solubility (mole fraction) is on record?
# output 0.000164

---

# condition_set: in isopropanol, 303.15 K
value_type: solubility (mole fraction)
When you answer, write just the number.

# input For the compound `CN1C(C(=O)Nc2ccccn2)=C(O)c2sccc2S1(=O)=O` , what solubility (mole fraction) is on record?
# output 8.91e-05

---

# condition_set: in ethylene glycol, 298.15 K
value_type: solubility (mole fraction)
When you answer, write just the number.

# input For the compound `CN1C(C(=O)Nc2ccccn2)=C(O)c2sccc2S1(=O)=O` , what solubility (mole fraction) is on record?
# output 0.000213

---

# condition_set: in propylene glycol, 313.15 K
value_type: solubility (mole fraction)
When you answer, write just the number.

# input For the molecule `CN1C(C(=O)Nc2ccccn2)=C(O)c2sccc2S1(=O)=O` , what solubility (mole fraction) is on record?
# output 0.000327

---

# condition_set: in PEG-400, 308.15 K
value_type: solubility (mole fraction)

# input For the compound `CN1C(C(=O)Nc2ccccn2)=C(O)c2sccc2S1(=O)=O` , what solubility (mole fraction) is on record?
# output 0.0175

---

# condition_set: in sec-butanol, 298.15 K
value_type: solubility (mole fraction)
When you answer, write just the number.

# input For the molecule `CN1C(C(=O)Nc2ccccn2)=C(O)c2sccc2S1(=O)=O` , what solubility (mole fraction) is on record?
# output 6.15e-05

---

# condition_set: in ethanol, 303.15 K
value_type: solubility (mole fraction)
When you answer, write just the number.

# input For the compound `CN1C(C(=O)Nc2ccccn2)=C(O)c2sccc2S1(=O)=O` , what solubility (mole fraction) is on record?
# output 4.11e-05

---

# condition_set: in isopropanol, 323.15 K
value_type: solubility (mole fraction)
When you answer, write just the number.

# input For the molecule `CN1C(C(=O)Nc2ccccn2)=C(O)c2sccc2S1(=O)=O` , what solubility (mole fraction) is on record?
# output 0.000267

---

# condition_set: in ethyl acetate, 308.15 K
value_type: solubility (mole fraction)
When you answer, write just the number.

# input For the compound `CN1C(C(=O)Nc2ccccn2)=C(O)c2sccc2S1(=O)=O` , what solubility (mole fraction) is on record?
# output 0.000825

---

# condition_set: in transcutol, 313.15 K
value_type: solubility (mole fraction)
When you answer, write just the number.

# input For the compound `CN1C(C(=O)Nc2ccccn2)=C(O)c2sccc2S1(=O)=O` , what solubility (mole fraction) is on record?
# output 0.00241
